Target: EGFR Del Ba/F3 cells (Homo sapiens, UniProt P00533, cells depend on it, form not given)
Sequence (P00533 25-1210 limits assumed, stated change not applied): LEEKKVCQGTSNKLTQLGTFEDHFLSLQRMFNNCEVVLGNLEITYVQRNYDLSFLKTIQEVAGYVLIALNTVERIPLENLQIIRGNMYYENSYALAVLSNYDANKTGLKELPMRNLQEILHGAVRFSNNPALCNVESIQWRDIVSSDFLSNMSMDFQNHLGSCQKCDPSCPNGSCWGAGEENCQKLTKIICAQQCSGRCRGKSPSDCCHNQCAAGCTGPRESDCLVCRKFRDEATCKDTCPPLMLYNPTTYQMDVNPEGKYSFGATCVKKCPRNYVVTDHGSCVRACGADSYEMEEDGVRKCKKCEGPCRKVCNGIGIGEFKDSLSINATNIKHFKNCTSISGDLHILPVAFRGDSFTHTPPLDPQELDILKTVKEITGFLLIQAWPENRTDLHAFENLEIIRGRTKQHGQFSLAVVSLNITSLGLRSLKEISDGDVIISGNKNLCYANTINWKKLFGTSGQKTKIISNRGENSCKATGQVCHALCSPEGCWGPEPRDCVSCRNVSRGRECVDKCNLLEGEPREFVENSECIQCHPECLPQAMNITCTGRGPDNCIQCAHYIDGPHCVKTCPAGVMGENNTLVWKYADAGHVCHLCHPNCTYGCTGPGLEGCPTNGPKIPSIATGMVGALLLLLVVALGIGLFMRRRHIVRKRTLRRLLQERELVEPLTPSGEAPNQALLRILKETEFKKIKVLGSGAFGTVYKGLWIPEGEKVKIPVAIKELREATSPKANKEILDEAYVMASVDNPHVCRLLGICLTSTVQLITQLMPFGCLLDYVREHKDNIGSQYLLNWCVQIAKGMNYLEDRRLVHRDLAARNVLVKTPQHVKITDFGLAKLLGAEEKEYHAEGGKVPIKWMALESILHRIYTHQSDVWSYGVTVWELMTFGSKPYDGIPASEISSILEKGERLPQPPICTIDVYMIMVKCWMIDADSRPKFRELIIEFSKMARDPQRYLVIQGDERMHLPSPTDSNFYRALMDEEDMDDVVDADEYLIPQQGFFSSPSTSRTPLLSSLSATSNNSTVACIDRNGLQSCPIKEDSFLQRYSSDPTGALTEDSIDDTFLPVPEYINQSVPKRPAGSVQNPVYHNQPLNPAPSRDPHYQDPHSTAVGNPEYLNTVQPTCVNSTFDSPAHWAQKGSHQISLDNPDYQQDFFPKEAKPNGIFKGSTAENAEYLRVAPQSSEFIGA
Assay: Ba/F3 cell growth inhibition (MTS assay), EGFR Del
Type: cell-based
Conditions: 1.0 μM drug; Assay 1
Reported Endpoint: EGFR activity (% Control, 1.0 μM drug) Assay 1 Del (% Control)
Number only, in % Control; omit the unit.

Measured on EGFR Del Ba/F3 cells (Homo sapiens, UniProt P00533, cells depend on it, form not given), C=CC(=O)Nc1cccc(N(C(=O)Nc2ccccc2)c2cc(Nc3ccc(N4CCN(C)CC4)cc3OC)ncn2)c1 has a documented EGFR activity (% Control, 1.0 μM drug) Assay 1 Del of 4

Measured EGFR activity (% Control, 1.0 μM drug) Assay 1 Del for this entry C=CC(=O)Nc1ccc(OC)c(N(C(=O)Nc2c(C)cccc2C)c2cc(Nc3ccc(N4CCN(CC)CC4)cc3)ncn2)c1 on EGFR Del Ba/F3 cells (Homo sapiens, UniProt P00533, cells depend on it, form not given): 3

Reported EGFR activity (% Control, 1.0 μM drug) Assay 1 Del (EGFR Del Ba/F3 cells (Homo sapiens, UniProt P00533, cells depend on it, form not given)) for entry C=CC(=O)Nc1cccc(N(C(=O)Oc2ccccc2)c2ccnc(Nc3ccc(N4CCN(C)CC4)cc3OC)n2)c1 [Compound 10A] is 4

Kindly note: EGFR Del Ba/F3 cells (Homo sapiens, UniProt P00533, cells depend on it, form not given), C=CC(=O)Nc1cccc(N(C(=O)Nc2ccccc2Cl)c2cc(Nc3ccc(N4CCN(C)CC4)cc3OC)ncn2)c1 [Compound 11A] , EGFR activity (% Control, 1.0 μM drug) Assay 1 Del value reported: 3

Entry C=CC(=O)Nc1ccc(OC)c(Nc2cc(N(C(=O)Nc3c(C)cccc3C)c3ccc(N4CCN(CC)CC4)cc3)ncn2)c1 , EGFR Del Ba/F3 cells (Homo sapiens, UniProt P00533, cells depend on it, form not given) data, EGFR activity (% Control, 1.0 μM drug) Assay 1 Del value: 3

// compound C=CC(=O)Nc1cccc(N(C(=O)NCc2ccccc2)c2cc(Nc3ccc(N4CCN(C)CC4)cc3OC)ncn2)c1 , assay EGFR Del Ba/F3 cells (Homo sapiens, UniProt P00533, cells depend on it, form not given), EGFR activity (% Control, 1.0 μM drug) Assay 1 Del value: 2

Data provenance: patent US10906878B2
